GI50 values recorded for HCT-15

- structure.string: "Oc1nc2nnc(COc3ccc(Cl)cc3Cl)n2nc1Cc1ccccc1"
  result: "> 100 µM"
- structure.string: "CC(C)(c1ccccc1)c1ccc(Oc2ccc(C#N)c(C#N)c2)cc1"
  result: "> 10 µM"

Now look at this entry.
In: Could you share which GI50 value was measured for N#Cc1cc(N(CCCl)CCCl)c([N+](=O)[O-])cc1[N+](=O)[O-] ?
Out: > 100 µM

----------
Tested on: DU-145
Test: NCI tumour cell line growth inhibition, 48 h
Calls of active or inactive are those of the source. Rule as the data show it: active = GI50 up to about 1.1 µM and inactive = higher. Where a SMILES comes first, the peptide text is derived from it. [ ]: non-standard residue; d: D form. The star is where a group is joined. ξ: configuration not given here. X4 = COc1ccc(C(N*)c2ccc(OC)cc2)cc1; NMeF = CN[C@@H](Cc1ccccc1)C(=O)O; NMeD = CN[C@@H](CC(=O)O)C(=O)O; NMeV = CN[C@H](C(=O)O)C(C)C; ξNMeV = CNC(C(=O)O)C(C)C; Boc = CC(C)(C)OC(=O)*; ξNMeA = CNC(C)C(=O)O; ξV = CC(C)C(N)C(=O)O
experimental.endpoint: GI50

Solved cases below.
- molecule: "COc1ccc(C(NC(=O)C[C@@H](C(=O)N(C)C(C)C(=O)O)N(C)C(=O)[C@@H]2CCCN2C(=O)[C@H](C(C)C)N(C)C(=O)C(C(C)C)N(C)C(=O)[C@H](Cc2ccccc2)N(C)C(=O)C(NC(=O)OC(C)(C)C)C(C)C)c2ccc(OC)cc2)cc1 (stereo not given in full) (Boc-[ξV][NMeF][ξNMeV][NMeV]P[NMeD](X4)[ξNMeA]-OH)"
  GI50: "25.9 µM (inactive)"
- molecule: "Nc1nc(Cl)cc(NCC2(CO)CCCCC2)n1"
  GI50: "> 100 µM (inactive)"

In: // returns reported GI50 for input CCOC(=O)c1sc2nc(SC)nc3c2c1NCN3C
Out: 70.1 µM (inactive)

In: Let us now turn to CC1=C(C)CC2(C=C(C(C)(C)C)C(=O)C(C(C)(C)C)=C2)SC1
Out: 39.3 µM (inactive)

In: Also, O=C(/C=C/c1ccccc1O)/C=C/c1ccccc1O please.
Out: 1.51 µM (inactive)

The reported measurements were obtained from ChEMBL document CHEMBL1201862.
